Give measured T/C for each item. Keep answers brief.
Tested on: L1210 leukemia ip in BDF1 mice, survival T/C
Assay: NCI In Vivo Anticancer Drug Screen. Data for tumor model L1210 Leukemia (intraperitoneal) in B6D2F1 (BDF1) mice
Conditions: endpoint: mean survival time; dose: 200.0 mg/kg/injection; schedule: Q01DX009 (ip); vehicle: Klucel (hydroxypropylcellulose) (HPC); higher = longer survival
Toxic doses and inconclusive results are not listed.

Query: I am curious: what T/C value has been reported for CCCCCCCCCC1(C)OCC(COC(N)=O)O1 (stereo not given) ?
Response: 98 % of control

Query: Proceed to `O=C(O)c1c(F)c(F)c(Oc2c(F)c(F)c(F)c(Oc3c(F)c(F)c(C(=O)O)c(F)c3F)c2F)c(F)c1F`
Response: 98 % of control

Query: Proceed to `O=C1CC=Nc2ccc([N+](=O)[O-])cc21`
Response: 97 % of control

Query: Proceed to CC(O)C(N)C(=O)O (stereo not given)
Response: 91 % of control

Query: Proceed to `Cc1cc(C)c(NC(=O)Nc2ccccc2F)cc1C`
Response: 89 % of control

Query: Proceed to `CC(C)COC(=O)c1ccccc1O`
Response: 99 % of control

Query: Proceed to `COc1ccc(Cl)cc1NC(=O)Nc1cc(C)ccn1`
Response: 100 % of control

Query: Proceed to `CCN(C(=S)Nc1cccc2ccccc12)c1ccccc1`
Response: 96 % of control

Query: Proceed to `O=C(NCCN1CCCC1)NC1CCCCC1`
Response: 98 % of control

Query: Proceed to `ClC(Cl)(Cl)c1cccc(-c2nc(NCCCN3CCCC3)nc(C(Cl)(Cl)Cl)n2)c1`
Response: 100 % of control

Query: Proceed to `CCOC(=O)C(C(=O)OCC)=C(C#N)c1c[nH]c2ccccc12`
Response: 96 % of control

Query: Proceed to `COc1cccc(NC(=S)N2CCCCC2)c1`
Response: 116 % of control

Query: Proceed to `O=C(NCCCCCCNC(=O)Nc1ccccc1F)Nc1ccccc1F`
Response: 89 % of control

Query: Proceed to `O=C(O)COc1c(Br)cc(Br)cc1Br`
Response: 88 % of control

Query: Proceed to `Cc1ccc(NC(=O)C(c2ccccc2)c2ccccc2)cc1Cl`
Response: 95 % of control

Query: Proceed to `CSc1ccc(OC(=O)Nc2ccc(Cl)cc2Cl)cc1C`
Response: 98 % of control

Query: Proceed to `C(=NCCc1ccccc1)c1ccccc1B1OB(c2ccccc2C=NCCc2ccccc2)OB(c2ccccc2C=NCCc2ccccc2)O1`
Response: 97 % of control

Query: Proceed to `O=C(Nc1ccc(F)c([N+](=O)[O-])c1)Nc1cccc2c(O)cccc12`
Response: 103 % of control

Query: Proceed to `OCCCNc1nc2ccc(Br)cc2c2ccccc12`
Response: 89 % of control

Query: Proceed to `CSc1ccc(NC(=O)Nc2cccc(C)n2)cc1`
Response: 108 % of control

Query: Proceed to `CCOc1ccc(/C=C2\N=C(c3ccccc3)OC2=O)cc1`
Response: 88 % of control

Query: Proceed to CC1CCc2nc(C#N)c(N)nc2C1 (stereo not given)
Response: 106 % of control

Query: Proceed to N#CSC1CSC(SC2=NC(SC#N)CS2)=N1 (stereo not given)
Response: 104 % of control

Query: Proceed to `COc1cc([N+](=O)[O-])ccc1NC(=O)Oc1ccc(NC(C)=O)cc1`
Response: 106 % of control

Query: Proceed to `O=C(NCCCl)NC1c2ccccc2CCc2ccccc21`
Response: 88 % of control

Ref: PubChem BioAssay AID248
